assayExplanation: growth suppression of PTEN-deleted HCT116, pilot screen, cell-based, HCT116 clonal line, CellTiter-Glo (AID 824);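 further: 0% = 20 µM Hyamine control and 100% = vehicle cell control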
conditionDescription: 60 h, at 10 µM, hits give low values
Records with an inconclusive call do not appear.
For each of the compounds below, state its viability.
Write the number in % without appending the unit.

// query Please report the recorded viability for COc1ccc(CCN2CC34C=CC(O3)C(C(=O)NCc3ccccc3)C4C2=O)cc1OC (stereo not given) .
// result 93.9

// query Sample O=C(C1CCCCN1S(=O)(=O)c1ccc(F)cc1)N1CCN(c2ccccc2F)CC1 (stereo not given) — what was its viability?
// result 82.9

// query Given COC(=O)C(C)Sc1nnc(Cc2cc(=O)[nH]c(=O)[nH]2)n1-c1cccc(OC)c1 (stereo not given) , state its recorded viability.
// result 108

// query // lookup viability for `CC(=O)c1ccc(NC(=O)CSc2nnc(Cn3c(=O)sc4ccccc43)n2C)cc1`
// result 101

// query What does the data say about its viability? Entry: `COc1ccc(-c2nc3cnccn3c2Nc2ccc3c(c2)OCO3)cc1`
// result 62.8

// query Given the entry `Cc1cc(C)c2c3c(c(-c4ccccc4)n2n1)c(=O)n(C)c(=O)n3C` , report its measured viability.
// result 94

// query # viability lookup, item `C=CCn1c(SCC(=O)N2CCOCC2)nc(O)c(Cc2ccccc2)c1=O`
// result 98.5

// query Find the recorded viability belonging to `Cc1cc(Nc2ccc(F)cc2F)n2ncnc2n1` and report it.
// result 97.8

// query Fill blank: measured viability of the compound `O=C(Cc1cc(=O)[nH]c(=O)[nH]1)N1CCC(Cc2ccccc2)CC1` is ____.
// result 94.2

// query Find the recorded viability belonging to `O=C(NCCC1=CCCCC1)c1ccc2c(=O)n3c(nc2c1)CCCCC3` and report it.
// result 97.8

// query What does the data say about its viability? Entry: `CCOC(=O)c1c(C2CCN(C(=O)OCC)CC2)nc2ccccn12`
// result 88.7

// query Please look up its viability: `CC(=O)Oc1c2occc2cc2ccc(=O)oc12`
// result 90.5

// query Data request, read-out viability, for `C=C(C)CSc1nnc(-c2cccc(Cl)c2)n1N`
// result 91.5

// query So what's the measured viability for this one? `CCOC(=O)Cn1c(=O)oc2cc(S(=O)(=O)N(C)Cc3ccco3)ccc21`
// result 94.1

// query Item `Fc1cccc(CSc2nc3ccncc3[nH]2)c1` has what recorded viability?
// result 79.7

// query Could you tell me which viability is on file for `COc1ccc(-n2c3c(cc(C(=O)Nc4ccc5c(c4)C(=O)NC5=O)c2=O)C(=O)CCC3)cc1` ?
// result 102

// query Dear colleague, I am looking for the recorded viability of the following compound: `Cc1cc(-c2ccco2)n(CC(=O)NCCN(C)C)n1`
// result 94.5

// query Given CC(c1ccccc1F)n1cc(C(=O)NCc2ccncc2)nn1 (stereo not given) , state its recorded viability.
// result 94.9

// query What does the data say about its viability? Entry: `CCSc1nnc(Cn2c(=O)sc3ccccc32)n1-c1ccc(OC)cc1`
// result 86.5

// query Quick one: viability for `COc1ccc(CC(=O)N2CCN=C2SC)cc1` ?
// result 103

// query Report viability for `Cn1c(=O)[nH]c(=O)c2c1nc(N1CCC(Cc3ccccc3)CC1)n2Cc1ccccc1` please.
// result 69.5

// query Please report the recorded viability for O=C(NC1CCCc2ccccc21)C1CCN(c2c(N3CCCC3)c(=O)c2=O)CC1 (stereo not given) .
// result 90

// query Please look up its viability: `O=C(c1cccc(S(=O)(=O)N2CCCC2)c1)c1cccc(S(=O)(=O)N2CCCC2)c1`
// result 56.5

// query Look up viability for this compound: `O=C(CSc1nc2ncccc2[nH]1)NCc1ccccc1`
// result 86.9

// query Please report the recorded viability for `NC(=O)C1CCN(C(=O)c2ccc(CS(=O)(=O)c3c(Cl)cccc3Cl)o2)CC1` .
// result 98.3

// query Bench note: what viability did `Cc1noc(C)c1S(=O)(=O)N(CC(=O)Nc1ccc2c(c1)OCO2)c1ccc(C(C)C)cc1` show?
// result 93.5

// query Reported viability, compound `O=C(CCN1C(=O)c2ccccc2C1=O)Nc1ccncc1` : ____
// result 105

// query Fill in: viability of `C/C(NCCN1CCOCC1)=C(\C#N)C(N)=O` is ___
// result 97.6

// query What does the record list as viability for `CCCCN(CC)CCNC(=O)Cn1cnc2sc(C)c(S(=O)(=O)N3CCOCC3)c2c1=O` ?
// result 98.4

// query viability for `CCOc1ccc(OCC)c(NS(=O)(=O)c2cccc3nsnc23)c1` ?
// result 98

// query # get_value(readout='viability', item= `CCN(CC)S(=O)(=O)c1ccc(C(=O)Nc2nnc(C(C)C)s2)cc1` )
// result 95

// query viability for `Cc1cccc(-n2ccnc2SCC(=O)Nc2nnc(C)s2)c1` ?
// result 72.8

// query Please give the measured viability for this compound: CC(C)(C)NC(=O)C1CN(S(=O)(=O)c2ccccc2)CCN1S(=O)(=O)c1ccccc1 (stereo not given)
// result 97.1

// query Look at this compound and give its reported viability. `O=C(CCN1CCN(CCO)CC1)Nc1ccc(F)c(F)c1`
// result 101

// query Find the recorded viability belonging to `COCCNC(=O)CN1C(=O)COc2ccc(Cl)cc21` and report it.
// result 97.9

// query // returns reported viability for input `CCOC(=O)c1ccc(NC(=O)CCC(=O)OC)cc1`
// result 98.3

// query Look at this compound and give its reported viability. `CCN(CC)c1ccc(NC(=O)COc2ccc(C)cc2)cc1`
// result 85.3

// query Returns the measured viability for the input compound. Input: COc1cc(C2C(C(=O)OC(C)C)=C(C)Nc3ncnn32)cc(OC)c1OC (stereo not given)
// result 96.8

// query Return reported viability; argument: `CCN(CCNS(=O)(=O)c1ccc2c(c1)oc(=O)n2C)c1ccccc1`
// result 105

// query Would you mind telling me what viability value was observed for `CCOCC(=O)NCc1ccc2c(c1)cc(C)n2C` ?
// result 97.3

// query Using the record for Cc1ccc(-c2nc(CS(=O)CC(=O)NC3CCCC3)c(C)o2)cc1 (stereo not given) , report its viability.
// result 91.4

// query Give its viability value. Item: CC(Oc1ccc(Cl)cc1Cl)c1nc(-c2ccccn2)no1 (stereo not given)
// result 87.7

// query What value of viability has been recorded for this entry: COc1ccc(C(c2sc3ncnn3c2O)N2CC(C)OC(C)C2)cc1OC (stereo not given)
// result 87.3

// query Item `Cc1ccc(C)c2[nH]c(=O)c(CCNC(=O)C(C)C)cc12` has what recorded viability?
// result 104

// query What value of viability has been reported for the following compound? `O=C(O)COc1ccc(Br)cc1/C=N/O`
// result 85.4
